experiment: NCI Yeast Anticancer Drug Screen. Data for the rad50 strain (AID 155);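 further: 0% = growth of vehicle-only cultures of the same strain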; conditions: S. cerevisiae rad50 strain growth inhibition; at 50.0 µM; stronger effect = higher value
The panel holds about 79,000 compounds, 15% with a hit somewhere; the sample as a whole holds those more often.
As shown below, each of these compounds has a reported growth inhibition value.
Unit % implied. Number only.

Observe how each entry below is paired with its result.
Cc1ccc(C(=O)CN)cc1 :: 10.4
CCOP(=O)(OCC)Oc1c(Cl)c(Cl)c(O)c(Cl)c1Cl :: -23.1
N.N.N.N.N.N.[Br-].[Co+3] :: -0.9
COc1cc(C)c(OP(=O)(OC)OC)cc1C :: 15.3
C[N+](C)([O-])CCNC(=O)c1cc(N(CCCl)CCCl)c([N+](=O)[O-])cc1[N+](=O)[O-] :: -7.55

Exercise: What value of measured growth inhibition is listed for "CCCc1c(C#N)c(S)[nH]c(=S)c1C#N" ?
Key: 33.4

Exercise: What value of measured growth inhibition is listed for O=C(NCC(O)CO)c1ccc(N(CCCl)CCCl)c([N+](=O)[O-])c1[N+](=O)[O-] (stereo unspecified) ?
Key: 17.1

---

experiment: NCI Yeast Anticancer Drug Screen. Data for the mec2-1 strain (AID 157); details: S. cerevisiae mec2-1 strain, at 50.0 µM
About 79,000 compounds went through this panel and 15% of them were active in at least one assay; those are over-represented in the sample as a whole. Activity calls are given as the source filed them. Rule as the data show it: active = growth inhibition above about 70%; inactive = the rest.
Field 'call' accepts Yes = active, No = inactive

Solved entries (count: 3):
COC(=O)C1=CO[C@@H](C)[C@@H]2CN3CCc4c([nH]c5cc(OC)ccc45)[C@@H]3C[C@H]12 :: No
CN1[C@@H](CC(=O)c2ccccc2)CCC[C@H]1CC(=O)c1ccccc1 :: No
c1ccc2c(c1)c1ccccc1c1n[se]nc21 :: No

Exercise: Please state the recorded outcome for this compound: "CC(=O)OC(C)(C)/C=C/C(=O)[C@](C)(O)[C@H]1[C@H](O)C[C@@]2(C)[C@@H]3CC=C4[C@@H](C[C@H](O)C(=O)C4(C)C)[C@]3(CO)C(=O)C[C@]12C"
Key: No

---

experiment: NCI Yeast Anticancer Drug Screen. Data for the sgs1 mgt1 strain (AID 161);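 further: 0% = growth of cultures given vehicle only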; conditions: S. cerevisiae sgs1 mgt1 strain, at 50.0 µM, stronger effect = higher value
Compounds without any hit were thinned out: in the full panel of roughly 79,000, 15% have a hit. Active and inactive are the calls of the source. Cut-off read from the data, not from the text of the source: active = growth inhibition above about 70%; inactive = the rest.
quantity name: growth inhibition

CCC(=O)C(c1ccccc1)(c1ccccc1)C(C)CN(C)C (stereo unspecified) :: 9.35% (inactive)
COc1ccc(CC(C)=O)cc1OC :: 19% (inactive)

Exercise: What value of measured growth inhibition is listed for CC(Br)C(N)=O (stereo unspecified) ?
Key: -14.1% (inactive)

Exercise: What value of measured growth inhibition is listed for CC1CN1C1=C(Br)C(=O)C(N2CC2C)=C(Br)C1=O (stereo unspecified) ?
Key: 84% (active)

Exercise: What value of measured growth inhibition is listed for "O=C1NN2CCCN=C2c2cnccc21" ?
Key: 11.4% (inactive)

Exercise: What value of measured growth inhibition is listed for CCCCCCP(=O)(CCCCCC)CCCCCC (tested in a mixture with another compound) ?
Key: 87.5% (active)

---

assay: NCI Yeast Anticancer Drug Screen. Data for the cln2 rad14 strain (AID 165);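 further: 0% = growth equal to vehicle treated cultures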; conditions: S. cerevisiae cln2 rad14 strain, at 50.0 µM
Compounds without any hit were thinned out: in the full panel of roughly 79,000, 15% have a hit. Activity calls are given as the source filed them. Cut-off read from the data, not from the text of the source: active = growth inhibition above about 70%; inactive = the rest.
Field 'call' accepts YES for active, NO for inactive

Solved entries (count: 10):
Cn1cnc([N+](=O)[O-])c1[Se]c1nc(N)nc2nc[nH]c12 :: NO
O=NNc1cncc(Cl)n1 :: NO
CCOC(=O)C(Br)CBr (configuration not stated) :: NO
Cc1ccc(S(=O)(=O)OCCN2CC2)cc1 :: NO
N#CC(C#N)=Cc1ccc(F)cc1 :: NO
O=C(c1cc(N(CCCl)CCCl)c([N+](=O)[O-])cc1[N+](=O)[O-])N1CCOCC1 :: NO
CCC1(CCBr)C(=O)NC(=O)NC1=O :: NO
Clc1ccc(N=P(c2ccccc2)(c2ccccc2)c2ccccc2)cc1.[Cl][Cd][Cl] :: YES
Cn1cc([N+](=O)[O-])c([N+](=O)[O-])c1 :: NO
CC1(C)CC(N2CCCCC2)=CC(=[N+]2CCCCC2)C1 :: NO

Exercise: Please state the recorded outcome for this compound: "Cn1c(O)c(N=NC(N)=S)c(=O)n(C)c1=O"
Key: NO

Exercise: Please state the recorded outcome for this compound: "CCOP(=O)(OCC)Oc1c(Cl)c(Cl)c(Cl)c(Cl)c1Cl"
Key: NO
